Biological target: ETA receptor variant I355A (Homo sapiens, UniProt P25101, I355A)
Sequence (P25101 21-427 I355A): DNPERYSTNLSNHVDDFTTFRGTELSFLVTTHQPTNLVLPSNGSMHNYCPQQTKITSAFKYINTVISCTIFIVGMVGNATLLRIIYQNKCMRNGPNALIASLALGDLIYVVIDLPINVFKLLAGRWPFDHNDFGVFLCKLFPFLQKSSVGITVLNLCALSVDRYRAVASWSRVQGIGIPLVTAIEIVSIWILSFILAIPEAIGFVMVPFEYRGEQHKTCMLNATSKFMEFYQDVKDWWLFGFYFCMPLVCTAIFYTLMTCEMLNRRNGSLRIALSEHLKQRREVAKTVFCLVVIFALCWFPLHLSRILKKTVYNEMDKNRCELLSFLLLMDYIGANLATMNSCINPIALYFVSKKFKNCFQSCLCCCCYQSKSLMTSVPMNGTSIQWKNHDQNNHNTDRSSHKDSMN
Assay: cell-based
pIC50: −log10 of the molar value.
Listed molecules paired with reported pIC50
observable: pIC50

[
  {
    "molecule": "COC(c1ccccc1)(c1ccccc1)[C@H](Oc1nc(C)cc(C)n1)C(=O)O [ambrisentan]",
    "study-system": "ETA receptor variant I355A (Homo sapiens, UniProt P25101, I355A)",
    "observable": "pIC50",
    "numeric-readout": 8.09
  },
  {
    "molecule": "COc1ccccc1Oc1c(NS(=O)(=O)c2ccc(C(C)C)cn2)nc(-c2ccnc(-c3nnn[nH]3)c2)nc1OCCO [tezosentan]",
    "study-system": "ETA receptor variant I355A (Homo sapiens, UniProt P25101, I355A)",
    "observable": "pIC50",
    "numeric-readout": 7.85
  },
  {
    "molecule": "CCCNS(=O)(=O)Nc1ncnc(OCCOc2ncc(Br)cn2)c1-c1ccc(Cl)cc1 [macitentan analog 9]",
    "study-system": "ETA receptor variant I355A (Homo sapiens, UniProt P25101, I355A)",
    "observable": "pIC50",
    "numeric-readout": 8.07
  }
]
